Tested on: iBMDM (immortalised mouse bone-marrow-derived macrophages), LPS-stimulated
assay.details: mitochondrial superoxide (MitoSOX fluorescence) fold increase over unstimulated control; higher = more LPS-induced mitochondrial ROS (less inhibition)
measurement.context: inhibitor concentration: 500 nM; LPS: 100 ng/ml; time after LPS: 2 h
observed.property: mitochondrial superoxide
Numbers only.

CCN1CCN(C(=O)Cc2ccc(Nc3ncc(F)c(Nc4ccc(C(=O)Nc5ccccc5Cl)cc4)n3)cc2)CC1 [Aurora A Inhibitor I]    1.24
CC(C)(C)c1cc(C=C(C#N)C#N)cc(C(C)(C)C)c1O [Tyrphostin 9]    1.21
Cc1ccccc1-n1c(Cn2ncc3c(N)ncnc32)nc2cccc(C)c2c1=O    1.25
CC(C)(C)c1cc(C=C(C#N)C#N)cc(Br)c1O    1.16

# next compound below
Annotate the compound Cn1cc(C2=C(c3cn(C4CCN(Cc5ccccn5)CC4)c4ccccc34)C(=O)NC2=O)c2ccccc21 with its measured mitochondrial superoxide. 1.76

---

Test system: iBMDM (immortalised mouse bone-marrow-derived macrophages), LPS-stimulated
assay.details: mitochondrial superoxide (MitoSOX fluorescence) fold increase over unstimulated control; higher = more LPS-induced mitochondrial ROS (less inhibition)
measurement.context: inhibitor concentration: 500 nM; LPS: 100 ng/ml; time after LPS: 1 h
Provide the recorded mitochondrial superoxide for the entries that follow.

Required: mitochondrial superoxide, one value per compound below.
1. N#CC(C#N)=Cc1ccc(O)c(O)c1
2. CC(C)(C)c1cc(C=C(C#N)C#N)cc(Br)c1O
3. Cn1cc(C2=C(c3cn(C4CCN(Cc5ccccn5)CC4)c4ccccc34)C(=O)NC2=O)c2ccccc21
4. Cc1ccccc1-n1c(Cn2ncc3c(N)ncnc32)nc2cccc(C)c2c1=O

1.36
1.12
1.7
1.14

---

Answer each item with its documented mitochondrial superoxide.
System: iBMDM (immortalised mouse bone-marrow-derived macrophages), LPS-stimulated
assay.details: mitochondrial superoxide (MitoSOX fluorescence) fold increase over unstimulated control; higher = more LPS-induced mitochondrial ROS (less inhibition)
measurement.context: inhibitor concentration: 500 nM; LPS: 100 ng/ml; time after LPS: 4 h
Give bare numbers.

A selection of reference data follows.
COC[C@H]1OC(=O)c2coc3c2[C@@]1(C)C1=C(C3=O)[C@@H]2CCC(=O)[C@@]2(C)C[C@H]1OC(C)=O [Wortmannin]    1.78
CC(C)(C)c1cc(C=C(C#N)C#N)cc(Br)c1O    1.11
N#CC(C#N)=Cc1ccc(O)c(O)c1    1.67

For the molecule CC(C)(C)c1cc(C=C(C#N)C#N)cc(C(C)(C)C)c1O [Tyrphostin 9] , give its reported mitochondrial superoxide. 1.28

// provenance: the supplement of paper PMC7393113
